target: GSK3b (GST-full length GSK3b) (Homo sapiens (Human)); experiment: GSK3b TR-FRET kinase assay; type: biochemical; conditions: 1 nM GSK3b, 2 μM ATP, 30 minute preincubation, Table 16; read-out: GSK3-B TR-FRET BIOCHEMICAL (TR-FRET)
Sequence (P49841 whole entry): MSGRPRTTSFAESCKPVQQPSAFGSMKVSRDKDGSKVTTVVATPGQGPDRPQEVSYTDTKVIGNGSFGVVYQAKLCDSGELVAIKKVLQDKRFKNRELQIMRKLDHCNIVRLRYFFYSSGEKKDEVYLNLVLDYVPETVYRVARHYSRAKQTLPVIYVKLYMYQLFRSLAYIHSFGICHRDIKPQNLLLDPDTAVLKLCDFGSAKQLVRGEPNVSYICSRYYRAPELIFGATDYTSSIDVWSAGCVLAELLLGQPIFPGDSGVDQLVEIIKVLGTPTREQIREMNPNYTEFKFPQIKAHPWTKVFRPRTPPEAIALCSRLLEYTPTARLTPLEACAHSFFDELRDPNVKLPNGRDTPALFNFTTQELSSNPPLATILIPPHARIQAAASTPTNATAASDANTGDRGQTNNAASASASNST
pIC50: −log10 of the molar value.
The following compounds are listed with their measured pIC50 values.

1) CC1(C)CC2=C(C(=O)[C@H]1F)[C@]1(CC[C@H](C(F)(F)F)CC1)c1c[nH]nc1N2 | ≥ 7.00
2) CC[C@@]1(c2ccccc2)C2=C(CC(C)(C)[C@H](F)C2=O)Nc2n[nH]cc21 | 5.30 to 6.00
3) Cc1ccc(S(=O)(=O)N2CCC3(CC2)C2=C(CC(C)(C)CC2=O)Nc2n[nH]cc23)c(C)c1 | ≥ 7.00
4) CC(C)c1ccccc1S(=O)(=O)N1CCC2(CC1)C1=C(CC(C)(C)CC1=O)Nc1n[nH]cc12 | 6.00 to 7.00

Suppose we examine the compound `Cc1nccc([C@H]2CC[C@@]3(CC2)C2=C(CC(C)(C)CC2=O)Nc2n[nH]cc23)c1C` ; what pIC50 value has been reported?
≥ 7.00

Record: CCC1(c2cccc(N3CCOc4ncccc43)c2)C2=C(CC(C)(C)CC2=O)Nc2n[nH]cc21 (centres unmarked)
≥ 7.00

Record: `CC1(C)CC(=O)C2=C(C1)Nc1n[nH]cc1[C@]21C[C@@H](c2ccncc2)C1`
≥ 7.00

Record: `CC[C@@]1(c2cccc(-c3ccnn3C)c2)C2=C(Nc3n[nH]cc31)[C@H](F)C(C)(C)CC2=O`
≥ 7.00

Record: CCC1(c2cccc(C(F)(F)F)c2)C2=C(Nc3n[nH]cc31)C(C)(C)NC2=O (centres unmarked)
6.00 to 7.00

Record: `CC[C@]1(c2ccccc2)C2=C(CC(C)(C)[C@H](F)C2=O)Nc2n[nH]cc21`
5.30 to 6.00

Record: `CC1(C)CC(=O)C2=C(C1)Nc1n[nH]cc1C21CN(S(=O)(=O)C2CC2)C1`
≥ 7.00

Record: CCC1(c2cccc(-c3cn(C)nc3C)c2)C2=C(Nc3n[nH]cc31)C(F)C(C)(C)CC2=O (single isomer, unassigned) [Compound 947650]
≥ 7.00

Record: CC1(C)CC(=O)C2=C(Nc3n[nH]cc3C23CCN(S(=O)(=O)C2CC2)CC3)C1F (centres unmarked)
≥ 7.00

Record: `C[C@@H]1C[C@H](C)C[C@@]2(C1)C1=C(CC(C)(C)CC1=O)Nc1n[nH]cc12`
5.30 to 6.00

Record: COc1cccc(S(=O)(=O)N2CCC3(CC2)C2=C(CC(C)(C)CC2=O)Nc2n[nH]cc23)c1 [Compound 943962]
6.00 to 7.00

Record: `CC1(C)CC(=O)C2=C(C1)Nc1n[nH]cc1[C@@]21CCN(S(=O)(=O)c2ccccc2F)C1`
≥ 7.00

Record: `CC[C@]1(c2ccccc2)C2=C(C[C@]3(CCNC3=O)CC2=O)Nc2n[nH]cc21`
< 5.30
